# assay.target: PI3Kδ (Homo sapiens)
# Construct: purchased Reaction Biology Corporation
# experiment: PI3Kδ kinase assay (HTRF, PIP3 detection)
# Format: biochemical
# measurement.setup: 1 μM compound, 10 μM ATP
metric: PI3Kδ @ 1 μM (% Inh)

Solved entries (count: 6):
- molecule: "Nc1ncnc2c1c(-c1ccnc3[nH]ccc13)nn2C1Cc2ccccc2C1 [Compound No. 70]"
  PI3Kδ @ 1 μM (% Inh): 56.41
- molecule: "COc1ccc(-c2nn(C3Cc4ccccc4C3)c3ncnc(N)c23)cc1N [Compound No. 73]"
  PI3Kδ @ 1 μM (% Inh): 52.39
- molecule: "Nc1ncnc2c1c(-c1cc(F)c3c(c1)NCCO3)nn2C1Cc2ccccc2C1 [Compound No. 84]"
  PI3Kδ @ 1 μM (% Inh): 88.36
- molecule: "Nc1cc(-c2nn(C3Cc4ccccc4C3)c3ncnc(N)c23)cnc1Cl [Compound No. 104]"
  PI3Kδ @ 1 μM (% Inh): 82.84
- molecule: "Nc1ncnc2c1c(-c1ccc(C(F)(F)F)c(OCc3ccccc3)c1)nn2C1Cc2ccccc2C1 [Compound No. 43]"
  PI3Kδ @ 1 μM (% Inh): 11.07
- molecule: "Nc1ncnc2c1c(-c1cc(O)cc(Cl)c1)nn2C1Cc2ccccc2C1 [Compound No. 67]"
  PI3Kδ @ 1 μM (% Inh): 90.92

(a) COc1cc(-c2nn(C3Cc4ccccc4C3)c3ncnc(N)c23)ccn1 [Compound No. 50]
(b) Nc1ncnc2c1c(N1CCOCC1)nn2C1Cc2ccccc2C1 [Compound No. 48]
(c) Nc1ncnc2c1c(-c1ccnc(O)c1)nn2C1Cc2ccccc2C1 [Compound No. 52]
Q: Number of molecules to sort: 3. Sort criterion: PI3Kδ @ 1 μM (% Inh), ascending. # output: labels, in the requested order
Result: b, c, a
(b: 11.95 % Inh, c: 37.25 % Inh, a: 79.98 % Inh)

---

# assay.target: PI3Kδ (Homo sapiens, UniProt O00329)
# Construct: purchased Reaction Biology Corporation
# Sequence (O00329 whole entry): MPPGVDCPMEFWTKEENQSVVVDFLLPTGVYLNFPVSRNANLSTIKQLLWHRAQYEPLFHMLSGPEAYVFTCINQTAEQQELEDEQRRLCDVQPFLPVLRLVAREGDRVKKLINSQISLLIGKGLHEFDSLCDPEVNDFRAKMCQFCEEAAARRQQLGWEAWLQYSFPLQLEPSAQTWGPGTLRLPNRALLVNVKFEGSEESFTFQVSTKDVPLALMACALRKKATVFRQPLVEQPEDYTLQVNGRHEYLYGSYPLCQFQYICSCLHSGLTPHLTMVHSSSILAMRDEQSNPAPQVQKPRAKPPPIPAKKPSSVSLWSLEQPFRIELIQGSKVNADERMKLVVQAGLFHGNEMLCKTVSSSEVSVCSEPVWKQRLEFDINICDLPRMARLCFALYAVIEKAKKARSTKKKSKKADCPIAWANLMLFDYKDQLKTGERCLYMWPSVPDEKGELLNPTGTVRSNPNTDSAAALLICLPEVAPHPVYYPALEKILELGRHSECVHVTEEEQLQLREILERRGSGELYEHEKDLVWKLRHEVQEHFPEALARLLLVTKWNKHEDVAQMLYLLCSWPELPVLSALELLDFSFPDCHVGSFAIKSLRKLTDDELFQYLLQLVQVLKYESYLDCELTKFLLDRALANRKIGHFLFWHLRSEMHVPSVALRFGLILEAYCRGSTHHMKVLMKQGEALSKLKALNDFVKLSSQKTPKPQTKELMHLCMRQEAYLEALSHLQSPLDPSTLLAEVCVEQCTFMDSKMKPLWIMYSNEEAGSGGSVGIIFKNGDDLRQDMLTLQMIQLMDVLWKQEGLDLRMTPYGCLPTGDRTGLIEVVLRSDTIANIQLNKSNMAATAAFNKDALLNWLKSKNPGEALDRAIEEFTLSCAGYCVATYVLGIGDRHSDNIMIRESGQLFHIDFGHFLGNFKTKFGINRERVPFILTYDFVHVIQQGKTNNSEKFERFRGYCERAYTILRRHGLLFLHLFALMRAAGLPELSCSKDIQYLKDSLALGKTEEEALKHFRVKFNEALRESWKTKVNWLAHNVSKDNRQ
# Sequence (P27986 whole entry partner): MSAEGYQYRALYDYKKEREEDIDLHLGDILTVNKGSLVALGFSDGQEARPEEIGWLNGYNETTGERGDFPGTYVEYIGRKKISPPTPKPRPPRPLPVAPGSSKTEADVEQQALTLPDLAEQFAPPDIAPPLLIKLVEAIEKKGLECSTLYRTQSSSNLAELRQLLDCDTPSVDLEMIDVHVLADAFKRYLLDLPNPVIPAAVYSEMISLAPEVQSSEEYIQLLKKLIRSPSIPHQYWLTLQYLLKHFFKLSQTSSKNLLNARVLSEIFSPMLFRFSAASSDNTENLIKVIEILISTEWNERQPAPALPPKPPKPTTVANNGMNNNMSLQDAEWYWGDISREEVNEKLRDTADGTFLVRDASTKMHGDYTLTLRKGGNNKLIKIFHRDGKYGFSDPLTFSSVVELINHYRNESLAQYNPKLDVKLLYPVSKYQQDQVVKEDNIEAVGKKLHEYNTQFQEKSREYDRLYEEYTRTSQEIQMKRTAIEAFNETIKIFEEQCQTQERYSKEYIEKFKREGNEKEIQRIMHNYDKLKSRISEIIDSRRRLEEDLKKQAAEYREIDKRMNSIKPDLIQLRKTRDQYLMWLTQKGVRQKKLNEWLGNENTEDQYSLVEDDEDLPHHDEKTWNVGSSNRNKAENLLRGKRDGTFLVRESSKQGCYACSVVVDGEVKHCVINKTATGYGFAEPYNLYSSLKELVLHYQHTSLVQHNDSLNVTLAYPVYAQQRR
# experiment: PI3Kδ kinase assay (HTRF, PIP3 detection)
# Assay type: biochemical
# measurement.setup: 1 μM compound, 10 μM ATP
metric: PI3Kδ @ 1 μM (% Inh)

- molecule: "Cc1nc2ccc(-c3nn(C4Cc5ccccc5C4)c4ncnc(N)c34)cc2[nH]1 [Compound No. 82]"
  PI3Kδ @ 1 μM (% Inh): 82.95
- molecule: "Nc1ncnc2c1c(-c1cc(O)cc(OC(F)(F)F)c1)nn2C1Cc2ccccc2C1 [Compound No. 72]"
  PI3Kδ @ 1 μM (% Inh): 85.89
- molecule: "Nc1ncnc2c1c(-c1cc(O)cc(F)c1)cn2C1Cc2ccccc2C1 [Compound No. 63]"
  PI3Kδ @ 1 μM (% Inh): 92.56
